# MEASUREMENT DESCRIPTION: inhibitors of TNFa-induced NFkB p65 translocation, primary screen, imaging, HUVEC, MLSMR starter and 10KST1 sets (AID 438);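 further: compound added about 3h40 before a 20 min TNFalpha stimulation; signal is the nuclear over cytoplasmic p65 intensity ratio per well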
# MEASUREMENT PARAMETERS: HUVEC TNFa-induced p65 nuclear translocation; at 2 µM, hits give high values, 0% TNFa-plus-vehicle, 100% no-TNFa wells

COMPOUND	inhibition [%]
CCCc1cc(-n2ccnc2)n2c(nc3ccccc32)c1C#N	8.7
N#Cc1ccc(-c2csc(NC(=O)C3CC3)n2)cc1	-9.6
COC(=O)CSc1nc(-c2cccs2)ccc1C#N	1.5
NC(=O)c1ccccc1NC(=O)CCCN1C(=O)CCC1=O	-1.8
CN1CCN(Cc2nc3c(c(=O)n(C)c(=O)n3C)n2Cc2ccccc2Cl)CC1	-15.7
Cc1cc(OCC(=O)NCCO)cc(C)c1Cl	-2.3
CCOC(=O)C1CCN(c2c(NC3CCCc4ccccc43)c(=O)c2=O)CC1 (configuration not stated)	6.6
O=C(C1=C(O)C(=O)N(CCCN2CCOCC2)C1c1ccccn1)c1cc2ccccc2o1 (configuration not stated)	-4.5
Nc1nnc(C(=O)c2ccccc2N)s1	-5.3
CCOC(=O)c1[nH]c2cc3c(cc2c1NC(=O)CN1CC(C)CC(C)C1)OCO3 (configuration not stated)	1.2
C=CCOc1ccc(/C=N/n2cncn2)cc1OC	-8.8
COC(=O)c1ccc2c(c1)nc(C)n2CCO	-4

---

# MEASUREMENT DESCRIPTION: inhibitors of mutant huntingtin aggregation, primary screen, imaging, exon1htt(103Q)mCFP cells, high-content imaging (AID 483);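 further: compound exposure lasted 3 days before fixation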
# MEASUREMENT PARAMETERS: exon1htt(103Q)mCFP cell line, aggregate imaging, at 2 µM; hits give high values

MOLECULE	inhibition of aggregation (%)
O=C(CSCc1ccc(F)cc1)NC1CCCC1	12.7
COc1cccc(OCc2nc3ccccc3[nH]2)c1	3.2
CCn1c(C(=O)N2CCC(C(=O)N3CCN(c4ccccn4)CC3)CC2)cc2sccc21	27.4
CC1(C)NC(=O)N(CCOc2cccc(Cl)c2Cl)C1=O	1.3
CCOc1ccc(OCc2cccc(C(=O)N3CCOCC3)c2)cc1	-7.6
CCN(C(=O)c1c(OC)cccc1OC)c1nnc(-c2cccnc2)s1	-35.8
OC(CNCC1COc2ccccc2O1)COCc1cccs1 (stereo not drawn)	-9.6
CCN(Cc1nc2ccccc2c(=O)[nH]1)Cc1cc(=O)oc2cc(C)c(C)cc12	0.4
O=C1CN(C(=O)COC(=O)c2ccccc2NC(=O)c2ccco2)c2ccccc2N1	7.3
O=C(CSc1nnc(-c2ccc(Br)o2)n1Cc1ccccc1)c1ccccc1F	11.9
COc1cc(S(=O)(=O)N2CCC(N3CCCCC3)CC2)ccc1-n1cnnn1	14.1
CCC1C(=O)N=C(SCC(=O)Nc2cccc3ccccc23)NC1=O (stereo not drawn)	3.1
CN(C)CCN1C(=O)c2oc3ccc(Cl)cc3c(=O)c2C1c1cccc(Br)c1 (stereo not drawn)	13.3
CCOC(=O)C(NC(C)=O)(NS(=O)(=O)c1ccccc1)C(F)(F)F (stereo not drawn)	18.4
Cc1oc(-c2ccc(Cl)cc2)cc1-c1nn2c(-c3ccoc3C)nnc2s1	-0.4
N#Cc1c(NC(NC(=O)c2ccco2)C(=O)c2ccccc2)sc2c1CCCC2 (stereo not drawn)	-7.6
N#CC1=C(SCC(=O)NC2CCCCC2)NC(=O)CC1c1ccco1 (stereo not drawn)	-1.4
CCc1ccccc1NC(=O)CCc1nc(-c2ccc(C)cc2)no1	-4
Cc1cc(C)n(-c2ccc3cccc(NS(C)(=O)=O)c3n2)n1	-10.7
CCOc1ccc(C(=O)OCc2nnc(-c3cccs3)o2)cc1OC	4.7
CN1CCc2nc(SCCOc3ccccc3)c(C#N)cc2C1	0
CCN(CC)S(=O)(=O)c1ccc(NC(=O)Cn2cnc3ccccc3c2=O)cc1	15.7
COc1ccc(N2C(=O)C(Cl)=C(N3CCCC3)C2=O)cc1	-0.8

---

# MEASUREMENT DESCRIPTION: inhibitors of larval lipid processing in zebrafish, primary screen, whole organism, PED6 fluorescence, gall bladder and intestine (AID 686);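 further: larvae 5 to 7 days old with five fish per well; signal comes from phospholipase A2 cleavage of quenched PED6 carried via bile; overnight exposure to compound and PED6 before scoring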
# MEASUREMENT PARAMETERS: Zebrafish larvae PED6 lipid processing, fluorescence scoring; screened at 20 µM (by protocol)
Active and inactive are the calls of the source.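 Rule for the calls: active = a full or partial loss of lipid-probe fluorescence in the fish gall bladder, intestine or both, judged by eye; inactive = no fluorescence loss, or compound toxic to the fish.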
Outcomes: active, inactive

MOLECULE	ASSIGNED CLASS
FC(F)(F)c1cccc(-n2cccc2/C=N/n2cnnc2)c1	inactive
Cn1c(Cn2cnc3ccccc32)nc2ccccc21	inactive
COCCCn1cnc2c(c1=O)c1nc3ccccc3nc1n2CCc1ccccc1	inactive
CCCCn1c(=O)n(C)c(=O)c2c3c(sc21)COC(C)(C)C3	inactive
Cc1ccc(NC(=O)c2cc(N3CCOCC3)nc3ccccc23)cc1	inactive
N#Cc1c(N)n(CCOC(=O)c2ccc(Cl)cc2)c2nc3ccccc3nc12	inactive
N#Cc1c2c(c(-c3ccccc3)[nH]c1=O)CCCC2	inactive
Cc1cc(C)n(-c2c(F)c(F)c(CN3CCCCC3)c(F)c2F)n1	inactive
COC(=O)c1[nH]c(C)c(/C(O)=C2\C(=O)C(=O)N(CCN3CCOCC3)C2c2ccccc2OC)c1C (stereo unspecified)	inactive
CC(Sc1ccc2ccccc2n1)C(=O)O (stereo unspecified)	inactive
CC1(C)Cc2c(c(N3CCCCC3)[nH]c(=S)c2C#N)CS1	inactive
CN(C)CCCOC(=O)c1ccc(Cl)cc1Cl	inactive
CCOC(=O)c1[nH]c2ccc(F)cc2c1N=C(C)N(CC)CC	inactive
CCOC(=O)C1=C(C)N=C2SC(C)C(=O)N2C1c1ccc(C(=O)OC)cc1 (stereo unspecified)	inactive
CCCSc1nnc2n(Cc3ccccc3)c(=O)c3c4c(sc3n12)CCC4	inactive
COC(=O)/C=c1/s/c(=C(/C#N)C(=O)N2CCCCC2)n(-c2ccccc2)c1=O	inactive
O=C(NCCC1=CCCCC1)c1ccc(=O)oc1	inactive
CCCn1nnc(NC(=O)c2cc(Br)cc(Br)c2OC)n1	inactive
Cc1cc(C)n(CC(=O)c2ccccc2)c(=O)c1C#N	inactive
Cc1cccc(-n2ncc3c(NCc4ccco4)ncnc32)c1	inactive
CCC1CC2(C)NC(=O)c3c(sc4c3CC(C)(C)OC4)N2C1=O (stereo unspecified)	inactive
Cn1c(N)c(C#N)c(C#N)c1-c1ccccc1	inactive
CC(C)CNC(=O)c1c(N)n(/N=C/c2cccnc2)c2nc3ccccc3nc12	inactive
Cc1cc(=O)oc2ccc(OCC(=O)N3CCc4ccccc43)cc12	inactive
N/C(=N\S(=O)(=O)c1ccc(Cl)s1)c1ccccc1	inactive
CC(NC(=O)Nc1ccc(O)cc1)(C(F)(F)F)C(F)(F)F	inactive
CCCCc1nc(N2CCOCC2)c(C#N)c2c1COC(C)(C)C2	inactive
CC(C)CSc1nc(N2CCOCC2)c2c(c1C#N)CC(C)(C)SC2	inactive
CCC(NC(=O)NC1=NCCS1)(C(F)(F)F)C(F)(F)F	inactive
CC(C)c1nc(N2CCOCC2)c(C#N)c2c1COC(C)(C)C2	inactive
CCOc1ccc(S(=O)(=O)NC(C)(C)C)cc1-c1nc2c(C(C)(C)C)nn(C)c2c(=O)[nH]1	inactive
COC(=O)c1ccc(C2/C(=C(\O)c3cccc(OC)c3)C(=O)C(=O)N2CCCN2CCOCC2)cc1 (stereo unspecified)	inactive
C=CCn1c(N)c(C(=O)Nc2ccccc2)c2nc3ccccc3nc21	active
Cc1c(O)c(CN2CCCC2)cc2c1oc(=O)c1ccccc12	inactive
Clc1ccc(COc2ccccn2)c(Cl)c1	inactive
CCOc1ccc(-c2nc(C#N)c(N3CCN(CC)CC3)o2)cc1	inactive
CC(=O)Nc1ccc(NCC(O)COc2ccccc2)cc1 (stereo unspecified)	inactive
COC(=O)C(NC(=O)c1ccco1)(Nc1ccc(Br)cn1)C(F)(F)F (stereo unspecified)	inactive
Nc1nc2n(n1)C(c1ccc(F)cc1)CC(c1ccc(F)cc1)N2 (stereo unspecified)	inactive
Nc1nnnn1/N=C/c1cccc(Oc2ccccc2)c1	inactive
COC(=O)c1cc(Br)c(=O)n(Cc2ccco2)c1	inactive
COCc1n[nH]c(=S)n1-c1cccc2ccccc12	inactive
CCOC(=O)N1CCN(C2OC(=O)c3ccccc32)CC1 (stereo unspecified)	inactive
N#CC(C#N)C(c1ccsc1)c1c(-c2ccccc2)[nH][nH]c1=O (stereo unspecified)	inactive
CCC(=O)Nc1ccc(-c2nnc(-c3ccccc3)o2)cc1	inactive
CN1Cc2c(N3CCOCC3)nc(SCc3ccccc3)c(C#N)c2CC1(C)C	inactive

---

Documented inhibition across a set of compounds
# MEASUREMENT DESCRIPTION: inhibitors of TNFa-induced NFkB p65 translocation, primary screen, imaging, HUVEC, MLSMR starter and 10KST1 sets (AID 438);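 further: compound added about 3h40 before a 20 min TNFalpha stimulation; signal is the nuclear over cytoplasmic p65 intensity ratio per well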
# MEASUREMENT PARAMETERS: HUVEC TNFa-induced p65 nuclear translocation; at 2 µM, hits give high values, 0% TNFa-plus-vehicle, 100% no-TNFa wells

COMPOUND	inhibition, %
CN(C)S(=O)(=O)c1ccc(/C(O)=C2/C(=O)C(=O)N(CCN3CCCCC3)C2c2cccnc2)cc1 (stereo not given)	5.5
CC1=C(C(=O)NC2CCC(C)CC2)C2(CCC(C)CC2)OC1=O (stereo not given)	17.2
COC(=O)c1ccccc1NC(=O)CC(NCc1ccccc1)C(=O)O (stereo not given)	-5
CCOC(=O)c1ccc(S(=O)(=O)NC2CCCCCCC2)n1C	-1
O=C(NCCCn1ccnc1)c1cnn2c1NC(c1ccccc1)CC2C(F)(F)F (stereo not given)	-4.9
COc1ccc(/C(O)=C2/C(=O)C(=O)N(c3nc(C)c(C)s3)C2c2ccco2)cc1 (stereo not given)	-12.5
CCCN(CCC)S(=O)(=O)c1ccc(NS(C)(=O)=O)cc1	3.4
COC(=O)c1c(N)sc(C(=O)N2CCOCC2)c1C	-5.1
CS(=O)(=O)c1ccc2nc(NC(NC(=O)c3ccco3)(C(F)(F)F)C(F)(F)F)sc2c1	-6.2
O=c1c(-c2ccc(Br)cc2)coc2c(CN3CCOCC3)c(O)ccc12	-2.4

Values from PubChem BioAssay
